- testedTarget: Gamma-secretase
- protocol: Modulation of gamma-secretase expressed in HEK293 cells co-expressing APPsw-lon assessed as reduction of amyloid-beta-42 level by sandwich immunoassay
experimentalEndpoint: IC50 (µM)

The cases that follow already have their IC50 on record.
Noted for COc1cc(/C=C2\CCCN3C2=NOC3(CO)c2ccc(F)cc2)ccc1-n1cnc(C)c1 (stereo not given) : its IC50 reads 0.075

Noted for CCc1csc(C[C@H]2CON=C3/C(=C/c4ccc(-n5cnc(C)c5)c(OC)c4)CCCN32)n1 : its IC50 reads 6.4

Noted for COc1cc(/C=C2\CCCN3C(=O)CON=C23)ccc1-n1cnc(C)c1 : its IC50 reads 2.5

Noted for COc1cc(/C=C2\CCCN3C2=NOC[C@@H]3Cc2ccccc2)ccc1-n1cnc(C)c1 : its IC50 reads 0.08

Noted for COc1cc(/C=C2\CCCN3CC(COCc4ccccc4)ON=C23)ccc1-n1cnc(C)c1 (racemic) : its IC50 reads 0.25

1: COc1cc(/C=C2\CCCN3C2=NOC[C@@H]3CN2CCOCC2)ccc1-n1cnc(C)c1
2: COc1cc(/C=C2\CCCN3CC(c4ccccc4)ON=C23)ccc1-n1cnc(C)c1 (racemic)
Task: Endpoint returns whichever of 1 and 2 has the numerically higher IC50. Pick one and reply with its label.
Output: 1
(1: 3.7 µM, 2: 0.21 µM)

1: COc1cc(/C=C2\CCCN3C2=NOC[C@@H]3C(C)(C)C)ccc1-n1cnc(C)c1
2: COc1cc(/C=C2\CCCN3C2=NOC[C@@H]3c2cc(F)c(OC)c(F)c2)ccc1-n1cnc(C)c1
3: COc1cc(/C=C2\CCCN3CCON=C23)ccc1-n1cnc(C)c1
4: COc1cc(/C=C2\CCCN3C2=NOCC3(C)c2ccc(F)cc2)ccc1-n1cnc(C)c1 (racemic)
Task: Arrange by IC50, high to low. Give the labels in the order requested.
Output: 3, 4, 1, 2

P: COc1cc(/C=C2\CCCN3C2=NOC[C@@H]3c2ccc(F)cc2)ccc1-n1cnc(C)c1
Q: COc1cc(/C=C2\CCCN3C2=NOC[C@@H]3CC(=O)N2CCCCC2)ccc1-n1cnc(C)c1
Task: Endpoint returns whichever of P and Q has the numerically higher IC50. Pick one and reply with its label.
Output: Q
(Q: 1.5 µM, P: 0.037 µM)

A: COc1cc(/C=C2\CCCN3C2=NOC3(C)c2ccc(F)cc2)ccc1-n1cnc(C)c1 (stereo not given)
B: COc1cc(/C=C2\CCCN3CC(c4cccc5ccccc45)ON=C23)ccc1-n1cnc(C)c1 (racemic)
Task: Endpoint returns whichever of A and B has the numerically higher IC50. Pick one and reply with its label.
Output: B

1: COc1cc(/C=C2\CCCN3C2=NOC[C@@H]3CC(C)C)ccc1-n1cnc(C)c1
2: COc1cc(/C=C2\O[C@H](C)CN3C2=NOC[C@@H]3c2cc(F)c(F)c(F)c2)ccc1-n1cnc(C)c1
3: COc1cc(/C=C2\O[C@@H](C)CN3C2=NOC[C@@H]3c2cc(F)c(F)c(F)c2)ccc1-n1cnc(C)c1
4: COc1cc(/C=C2\CCCN3CC(CO)ON=C23)ccc1-n1cnc(C)c1 (racemic)
Task: Form: Sort by [IC50] Order [ ascending ] Give the labels in the order requested.
Output: 2, 3, 1, 4

1: COc1cc(/C=C2\CCCN3C2=NOC[C@@H]3C2CCOCC2)ccc1-n1cnc(C)c1
2: COc1cc(/C=C2\CCCN3C2=NOC[C@@H]3CS(C)(=O)=O)ccc1-n1cnc(C)c1
Task: Given the two records 1 and 2 , choose the one whose IC50 value is lower. Pick one and reply with its label.
Output: 1

I: COc1cc(/C=C2\CCCN3C2=NOC[C@@H]3c2cc(F)cc(Cl)c2)ccc1-n1cnc(C)c1
II: COc1cc(/C=C2\CCCN3C2=NOC32CCOc3ccc(F)cc32)ccc1-n1cnc(C)c1 (stereo not given)
Task: Endpoint returns whichever of I and II has the numerically higher IC50. Pick one and reply with its label.
Output: II

I: COc1cc(/C=C2\CCCN3C2=NOCC3C(O)c2ccc(Cl)cc2)ccc1-n1cnc(C)c1 (stereo not given)
II: COc1cc(/C=C2\O[C@H](C)CN3C2=NOC[C@@H]3c2cc(F)cc(F)c2)ccc1-n1cnc(C)c1
III: COc1cc(/C=C2\CCCN3C(=O)C(c4cc(F)cc(F)c4)ON=C23)ccc1-n1cnc(C)c1 (racemic)
IV: COc1cc(/C=C2\CCCN3C2=NOC[C@@H]3C(C)C)ccc1-n1cnc(C)c1
Task: Arrange by IC50, high to low. Give the labels in the order requested.
Output: III, IV, I, II
